- Tested on: SF-268 CNS
- assay summary: NCI-60 one-dose screen, 48 h (100 = growth as untreated, 0 = no growth, -100 = all killed)
- condition info: 10 µM unless noted
This is part of a sample that, as a whole, favours compounds with a hit. Of some 83,000 tested, about 20% had one in any assay.
Please respond with reported growth for every item in the list.
Numbers only, in %.

Okay, here is my list. What is growth for each of these?
1. C[C@]12CCc3c(ccc4cc(O)ccc34)[C@@H]1C[C@H](O)[C@@H]2O
2. O=C(CC1(O)C(=O)Nc2ccc(Br)cc21)c1ccc(Cl)cc1 (centres undefined)
3. O=C(/C=C/c1cccs1)Nc1ncc(Cc2ccc(Cl)c(Cl)c2)s1
4. C#CCOCC1CN(C)C(=O)O1 (centres undefined)
5. Cc1cc(N2CCN(CC(=O)Nc3ccc4c(ccn4Cc4ccccc4)c3)CC2)nc(N2CCCCCC2)n1
6. CCOC(=O)C1=C(C)N=C2SC=C(c3ccc(F)cc3)N2[C@H]1c1cn(-c2ccccc2)nc1-c1ccc(Cl)cc1
7. O=C1OCC2=C1C(c1cccc([N+](=O)[O-])c1)c1cc3c(cc1N2CCO)CCC3 (centres undefined)

1. 103
2. 97.5
3. 67.9
4. 113
5. 72.9
6. 92.4
7. 33.1

Okay, here is my list. What is growth for each of these?
1. O=C([C@H]1C[C@H]1c1ccc(S(F)(F)(F)(F)F)cc1)N1CCN(c2cc(Cl)ccc2C(F)(F)F)CC1
2. COc1ccc(NC(=O)Nc2ccccc2CNc2nc(Nc3ccc(OCCN4CCCC4)cc3)ncc2Cl)cc1
3. COc1ccccc1/C=C1\COc2ccc(O)cc2C1=O
4. C=C1C(=O)O[C@H]2[C@H]1CC/C(CNS(=O)(=O)c1ccc3ccccc3c1)=C\CC[C@@]1(C)O[C@@H]21
5. CCOC(=O)c1nc2c3ccccc3cnn2c1C(=O)c1ccc(OC)cc1
6. COc1ccc(C/C(C)=C(\c2ccc(O)cc2)c2ccc(OCCCN(C)C)cc2)cc1
7. Cc1ccc(-c2nc3nc(-c4ccccc4)nc(N4CCCNCC4)c3o2)cc1
8. COc1cc(Nc2nc3ccccc3cc2C(=O)Nc2ccc(F)c(F)c2)cc(OC)c1OC

90.2
35.8
83.9
51.4
103
88.1
-26.3
40.4

Okay, here is my list. What is growth for each of these?
1. CCN(CC)CC(=O)Nc1ccc2ncnc(Nc3ccc(Oc4cccc(F)c4)c(Cl)c3)c2c1
2. Cc1nc(-n2[nH]c(=O)ccc2=O)sc1N=Nc1ccccc1
3. [Cu+].[NH-][C@H]1C[N-]C(=O)[C@H]([C@H]2CCN=C(N)N2)[N-]C(=O)/C(=C\NC(N)=O)[N-]C(=O)[C@H](CNC(=O)C[C@@H](N)CCCN)[N-]C(=O)[C@H](CO)[N-]C1=O
4. O=C(Nc1ccc(F)cc1)c1cc2cc(Nc3nc(-c4ccccc4)nc4ccccc34)ccc2oc1=O

[58.8, 104, 107, 97.3]
